TESTED_TARGET: human cathepsin S (CatS) (Homo sapiens (Human))
Sequence (P25774 115-331): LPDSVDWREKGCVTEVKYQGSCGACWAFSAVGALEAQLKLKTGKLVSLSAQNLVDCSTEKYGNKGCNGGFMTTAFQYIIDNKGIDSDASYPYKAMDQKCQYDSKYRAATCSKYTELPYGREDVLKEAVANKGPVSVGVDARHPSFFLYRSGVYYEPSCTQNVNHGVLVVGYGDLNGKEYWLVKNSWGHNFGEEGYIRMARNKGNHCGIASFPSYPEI
EXPERIMENTAL_DETAILS: CatS functional enzyme assay
Type: biochemical
ASSAY_SETUP: recombinant human CatS, substrate Z-VVR-AMC 5 μM, pH 6.5; Ki by Cheng Prusoff equation; read-out: hCatS, Ki
REPORTED_METRIC: pKi
Expect pKi as a plain number equal to -log10 of the molar concentration.

Recorded pKi, per entry:
[
  {
    "MOLECULE_SMILES": "O=C(N[C@H](C(=O)N1C[C@H](Cl)[C@H]2OCC(=O)[C@H]21)C1CCCCC1)c1sc(-c2cccnn2)cc1F",
    "pKi": 6.14
  },
  {
    "MOLECULE_SMILES": "O=C(N[C@H](C(=O)N1C[C@H](Cl)[C@H]2OCC(=O)[C@H]21)C1CCCCC1)c1ccc(-c2cccnn2)o1",
    "pKi": 6.14
  }
]

# value lookup — system human cathepsin S (CatS) (Homo sapiens (Human)), readout pKi, item O=C(N[C@H](C(=O)N1C[C@H](Cl)[C@H]2OCC(=O)[C@H]21)C1CCCCC1)c1ccc(-c2ccc(C(F)(F)F)nc2)s1
6.24

---

Catalogue of Ki readings, one per entry.
TESTED_TARGET: UniProt:P43235
Sequence (P43235 115-329): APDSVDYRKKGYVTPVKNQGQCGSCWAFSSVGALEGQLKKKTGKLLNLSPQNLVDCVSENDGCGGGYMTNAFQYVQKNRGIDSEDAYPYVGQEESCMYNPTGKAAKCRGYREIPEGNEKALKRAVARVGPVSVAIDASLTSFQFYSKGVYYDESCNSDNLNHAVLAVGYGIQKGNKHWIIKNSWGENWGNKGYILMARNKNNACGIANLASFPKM
EXPERIMENTAL_DETAILS: CatK functional enzyme assay
ASSAY_SETUP: recombinant human CatK, substrate Z-FR-AMC 40 μM, pH 5.5; Ki by Cheng Prusoff equation; read-out: hCatK, Ki

Field: example entries. Status: answers known.
[
  {
    "MOLECULE_SMILES": "Cc1nc(-c2cnccn2)sc1C(=O)N[C@H](C(=O)N1C[C@H](Cl)[C@H]2OCC(=O)[C@H]21)C1CCCCC1",
    "VALUE_MEASURED": "37 nM"
  },
  {
    "MOLECULE_SMILES": "Cc1cnncc1-c1ccc(C(=O)N[C@H](C(=O)N2C[C@H](Cl)[C@H]3OCC(=O)[C@H]32)C2CCCCC2)s1",
    "VALUE_MEASURED": "10 nM"
  }
]

UniProt:P43235 / Ki / O=C(N[C@H](C(=O)N1C[C@H](Cl)[C@H]2OCC(=O)[C@H]21)C1CCCCC1)c1ncc(-c2cnc(C(F)(F)F)nc2)s1 : value?
42 nM

UniProt:P43235 / Ki / O=C(N[C@H](C(=O)N1C[C@H](Cl)[C@H]2OCC(=O)[C@H]21)C1CCCCC1)c1ccc(-c2ccncn2)s1 : value?
12 nM

Could you share what Ki was measured for O=C(N[C@H](C(=O)N1C[C@H](Cl)[C@H]2OCC(=O)[C@H]21)C1CCCCC1)c1ccc(-c2cnccn2)o1 , tested on UniProt:P43235?
153 nM

Query for UniProt:P43235: what Ki does the record show for Cc1ncc(-c2ccc(C(=O)N[C@H](C(=O)N3C[C@H](Cl)[C@H]4OCC(=O)[C@H]43)C3CCCCC3)s2)cn1 ?
10 nM

---

TESTED_TARGET: human cathepsin L (CatL) (Homo sapiens (Human))
Sequence (P07711 114-333): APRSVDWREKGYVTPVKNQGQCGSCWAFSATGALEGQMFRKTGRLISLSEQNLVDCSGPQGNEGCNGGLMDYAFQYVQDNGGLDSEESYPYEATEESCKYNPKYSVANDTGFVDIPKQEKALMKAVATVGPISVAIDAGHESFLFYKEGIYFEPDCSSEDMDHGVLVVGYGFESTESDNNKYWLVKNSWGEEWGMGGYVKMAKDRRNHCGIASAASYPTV
EXPERIMENTAL_DETAILS: CatL functional enzyme assay
Assay type: biochemical
ASSAY_SETUP: read-out: hCatL, inhibition [%] at 31.6 μM
Description: Reference and test compounds were assayed for inhibitory potency (IC50) against human cathepsins using the following assay setups: Recombinant human cathepsins (CatS, CatK, CatL) were purchased from a Enzo Life Sciences. […] Flourogenic substrate turnover was detected using a microplate reader (Synergy™ H4, BioTek). Ki values were calculated using the Cheng Prusoff equation (Cheng & Prosoff 1973).
Each item that follows carries a reported inhibition at 31.6 µM.
The figure you give is taken to be in %; do not add the unit.

Look over these answered cases.
[
  {
    "MOLECULE_SMILES": "Cc1cc(-c2ccc(C(=O)N[C@H](C(=O)N3C[C@H](Cl)[C@H]4OCC(=O)[C@H]43)C3CCCCC3)s2)ccn1",
    "TESTED_TARGET": "human cathepsin L (CatL) (Homo sapiens (Human))",
    "VALUE_MEASURED": 12
  },
  {
    "MOLECULE_SMILES": "O=C(N[C@H](C(=O)N1C[C@H](Cl)[C@H]2OCC(=O)[C@H]21)C1CCCCC1)c1ccc(-c2cccnc2)o1",
    "TESTED_TARGET": "human cathepsin L (CatL) (Homo sapiens (Human))",
    "VALUE_MEASURED": 16
  }
]

Consider the record given below.
May I ask what inhibition at 31.6 µM has been recorded for N#Cc1cncc(-c2cnc(C(=O)N[C@H](C(=O)N3C[C@H](Cl)[C@H]4OCC(=O)[C@H]43)C3CCCCC3)s2)c1 ?
16

---

EXPERIMENTAL_DETAILS: Caco 2 permeability assay
Format: in vitro ADME, human
ASSAY_SETUP: human, pH 7.4; efflux ratio ER=Peff(B−A)/Peff(A−B), Caco-2
REPORTED_METRIC: efflux ratio at 120 min, 10 μM

Use the examples below as a reference point.
[
  {
    "COMPOUND": "O=C(N[C@H](C(=O)N1C[C@H](Cl)[C@H]2OCC(=O)[C@H]21)C1CCCCC1)c1cccc(-c2cn[nH]c2)c1 [Example C1, reference compound]",
    "REPORTED_METRIC": "efflux ratio at 120 min, 10 μM",
    "VALUE_MEASURED": 46.1
  },
  {
    "COMPOUND": "O=C(N[C@H](C(=O)N1C[C@H](Cl)[C@H]2OCC(=O)[C@H]21)C1CCCCC1)c1ccc(-c2ccncn2)s1",
    "REPORTED_METRIC": "efflux ratio at 120 min, 10 μM",
    "VALUE_MEASURED": 1.3
  },
  {
    "COMPOUND": "O=C(N[C@H](C(=O)N1C[C@H](Cl)[C@H]2OCC(=O)[C@H]21)C1CCCCC1)c1ccc(-c2ccnnc2)s1",
    "REPORTED_METRIC": "efflux ratio at 120 min, 10 μM",
    "VALUE_MEASURED": 7.5
  }
]

Form field: reported efflux ratio at 120 min, 10 μM of O=C(N[C@H](C(=O)N1C[C@H](Cl)[C@H]2OCC(=O)[C@H]21)C1CCCCC1)c1ccc(-c2cncnc2)s1
3.5

---

Consider the following compounds and their measured Selectivity Ki(hCatS)/Ki(hCatK) readings.
TESTED_TARGET: UniProt P25774
EXPERIMENTAL_DETAILS: CatS functional enzyme assay
Format: biochemical
ASSAY_SETUP: ratio Ki(hCatS)/Ki(hCatK)
Just the number, please.

Here's what some known entries look like.
[
  {
    "COMPOUND": "Cc1cc(-c2cnc(C(=O)N[C@H](C(=O)N3C[C@H](Cl)[C@H]4OCC(=O)[C@H]43)C3CCCCC3)s2)cn[n+]1[O-] [Example 77]",
    "TESTED_TARGET": "UniProt P25774",
    "Selectivity Ki(hCatS)/Ki(hCatK)": 1.3
  },
  {
    "COMPOUND": "COc1ccc(-c2ccc(C(=O)N[C@H](C(=O)N3C[C@H](Cl)[C@H]4OCC(=O)[C@H]43)C3CCCCC3)s2)nn1 [Example 34]",
    "TESTED_TARGET": "UniProt P25774",
    "Selectivity Ki(hCatS)/Ki(hCatK)": 21.5
  },
  {
    "COMPOUND": "O=C(N[C@H](C(=O)N1C[C@H](Cl)[C@H]2OCC(=O)[C@H]21)C1CCCCC1)c1ncc(-c2ccccn2)s1 [Example 46]",
    "TESTED_TARGET": "UniProt P25774",
    "Selectivity Ki(hCatS)/Ki(hCatK)": 45.9
  },
  {
    "COMPOUND": "O=C(N[C@H](C(=O)N1C[C@H](Cl)[C@H]2OCC(=O)[C@H]21)C1CCCCC1)c1sc(-c2cccnc2)cc1F [Example 65]",
    "TESTED_TARGET": "UniProt P25774",
    "Selectivity Ki(hCatS)/Ki(hCatK)": 1.2
  },
  {
    "COMPOUND": "Cc1cc(-c2cnc(C(=O)N[C@H](C(=O)N3C[C@H](Cl)[C@H]4OCC(=O)[C@H]43)C3CCCCC3)s2)cnn1 [Example 75]",
    "TESTED_TARGET": "UniProt P25774",
    "Selectivity Ki(hCatS)/Ki(hCatK)": 1.2
  },
  {
    "COMPOUND": "O=C(N[C@H](C(=O)N1C[C@H](Cl)[C@H]2OCC(=O)[C@H]21)C1CCCCC1)c1ncc(-c2ccncc2)s1 [Example 49]",
    "TESTED_TARGET": "UniProt P25774",
    "Selectivity Ki(hCatS)/Ki(hCatK)": 41.8
  },
  {
    "COMPOUND": "CCc1cc(-c2cnc(C(=O)N[C@H](C(=O)N3C[C@H](Cl)[C@H]4OCC(=O)[C@H]43)C3CCCCC3)s2)ccn1 [Example 87]",
    "TESTED_TARGET": "UniProt P25774",
    "Selectivity Ki(hCatS)/Ki(hCatK)": 16.2
  },
  {
    "COMPOUND": "Cc1cc(-c2cnc(C(=O)N[C@H](C(=O)N3C[C@H](Cl)[C@H]4OCC(=O)[C@H]43)C3CCCCC3)s2)ccn1 [Example 51]",
    "TESTED_TARGET": "UniProt P25774",
    "Selectivity Ki(hCatS)/Ki(hCatK)": 24.7
  },
  {
    "COMPOUND": "O=C(N[C@H](C(=O)N1C[C@H](Cl)[C@H]2OCC(=O)[C@H]21)C1CCCCC1)c1ccc(-c2ccnc(C3CC3)c2)s1 [Example 66]",
    "TESTED_TARGET": "UniProt P25774",
    "Selectivity Ki(hCatS)/Ki(hCatK)": 5.0
  },
  {
    "COMPOUND": "COc1cc(-c2ccc(C(=O)N[C@H](C(=O)N3C[C@H](Cl)[C@H]4OCC(=O)[C@H]43)C3CCCCC3)s2)ccn1 [Example 56]",
    "TESTED_TARGET": "UniProt P25774",
    "Selectivity Ki(hCatS)/Ki(hCatK)": 16.6
  }
]

Item under review: O=C(N[C@H](C(=O)N1C[C@H](Cl)[C@H]2OCC(=O)[C@H]21)C1CCCCC1)c1sc(-c2cccnn2)cc1F [Example 59] . Reported Selectivity Ki(hCatS)/Ki(hCatK)?
6.2

Would you kindly share the measured Selectivity Ki(hCatS)/Ki(hCatK) for O=C(N[C@H](C(=O)N1C[C@H](Cl)[C@H]2OCC(=O)[C@H]21)C1CCCCC1)c1ncc(-c2cnc(C3CC3)nc2)s1 [Example 57] ?
3.6
